# TESTED TARGET: σ-2 receptors (Homo sapiens, UniProt Q5BJF2)
# Sequence (Q5BJF2 whole entry): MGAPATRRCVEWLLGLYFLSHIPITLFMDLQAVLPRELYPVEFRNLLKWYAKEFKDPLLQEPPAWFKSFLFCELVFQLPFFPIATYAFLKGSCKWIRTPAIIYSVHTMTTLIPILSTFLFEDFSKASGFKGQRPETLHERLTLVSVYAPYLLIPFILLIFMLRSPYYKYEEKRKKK
pKi: −log10 of the molar value.
READOUT KIND: pKi

Give the reported pKi for CN(C)CC1COC(c2ccccc2)(c2ccccc2)C1 (stereo not shown) (system: σ-2 receptors (Homo sapiens, UniProt Q5BJF2)).
< 5.00

// data source = patent US20170129864A1
